I'd be grateful if you could share measured pEC50 for these entries.
Molecular target: T1, VEGF (Example 4) (UniProt P15692 27-191)
T1 chain: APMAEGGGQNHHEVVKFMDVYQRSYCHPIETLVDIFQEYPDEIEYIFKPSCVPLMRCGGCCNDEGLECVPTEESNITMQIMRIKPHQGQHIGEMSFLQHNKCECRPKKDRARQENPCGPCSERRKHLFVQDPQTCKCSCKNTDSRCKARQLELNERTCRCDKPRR
Test: binding
One number for each entry, as −log10 of the molar value.

BINDER	READING
4 (antibody, V domains shown) V domain 1: FQPVLHQPPAMSSALGTTIRLTCTLRNDHDIGVYSVYWYQQRPGHPPRFLLRYFSQSDKSQGPQVPPRFSGSKDVARNRGYLSISELQPEDEAMYYCAMGARSSVTHVFGSGTQLTVLS V domain 2: QPVLHQPPAMSSALGTTIRLTCTLRNDHDIGVYSVYWYQQRPGHPPRFLLRYFSQSDKSQGPQVPPRFSGSKDVARNRGYLSISELQPEDEAMYYCAMGARSSVTHVFGSGTQLTVLS	10.82
6 (antibody, V domains shown) V domain 1: PQPVLHQPPAMSSALGTTIRLTCTLRNDHDIGVYSVYWYQQRPGHPPRFLLRYFSQSDKSQGPQVPPRFSGSKDVARNRGYLSISELQPEDEAMYYCAMGARSSVTHVFGSGTQLTVLS V domain 2: QPVLHQPPAMSSALGTTIRLTCTLRNDHDIGVYSVYWYQQRPGHPPRFLLRYFSQSDKSQGPQVPPRFSGSKDVARNRGYLSISELQPEDEAMYYCAMGARSSVTHVFGSGTQLTVLS	10.92

The record that follows has no pEC50 shown yet.
I am curious: what pEC50 value has been reported for 5 (antibody, V domains shown) V domain 1: PQPVLHQPPAMSSALGTTIRLTCTLRNDHDIGVYSVYWYQQRPGHPPRFLLRYFSQSDKSQGPQVPPRFSGSKDVARNRGYLSISELQPEDEAMYYCAMGARSSVTHVFGSGTQLTVLS V domain 2: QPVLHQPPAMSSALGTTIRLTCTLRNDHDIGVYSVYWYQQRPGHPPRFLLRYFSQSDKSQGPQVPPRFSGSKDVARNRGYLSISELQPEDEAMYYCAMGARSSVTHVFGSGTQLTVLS ?
10.92
